The entries below come with measured GI50 values attached.
system: RXF 631; assay: NCI tumour cell line growth inhibition, 48 h
The source made the active and inactive calls. Rule as the data show it: active = GI50 up to about 1.1 µM and inactive = higher.

molecule=COc1ccc(C)cc1-c1cc(Sc2ccccc2)c(-c2cc(C)ccc2OC)o1 data_value="> 31.6 µM (inactive)"
molecule="CC(C)c1ccc(C2C3=C(N=C4SCC(=O)N42)C(=O)c2ccccc23)cc1 (stereo not drawn)" data_value="> 100 µM (inactive)"
molecule=Cc1cc(NS(=O)(=O)c2ccc(NC(=O)c3cccc4c(N)c5ccccc5nc34)cc2)no1 data_value="18.4 µM (inactive)"

Given the molecule CNC(=O)OCc1nc(SSC(C)(C)C)n(C)c1COC(=O)NC , what is its reported GI50?
1.73 µM (inactive)

Then this molecule: Cc1cccc(C(C)(C)C)c1NC(=O)C(=O)Cc1nc2ccccc2s1
> 100 µM (inactive)

Then this molecule: CC1C[C@]2(C[C@@H](C)C(=O)O2)OC2CC3(C)C4CCC5C(C)(C)OC(=O)CC[C@@]56C[C@@]46CC[C@]3(C)C12 (stereo partly drawn)
> 100 µM (inactive)

Then this molecule: COc1ccc(C2=NN(C(=O)COc3ccc(Cl)cc3)C(O)(c3ccc(Cl)cc3)C2)cc1 (stereo not drawn)
> 100 µM (inactive)

Then this molecule: CC(C)CC(=O)NS(=O)(=O)c1ccccc1
> 100 µM (inactive)

Then this molecule: CC(/C=C1\CCC(CN(C)C)C1=O)c1cccc(Br)c1 (stereo not drawn)
7.91 µM (inactive)

Then this molecule: CCOc1cccc2ccc[n+](CC)c12
> 100 µM (inactive)

Then this molecule: Brc1ccc2c(c1)C1(c3cc(Br)ccc3-2)c2cc(Br)ccc2-c2ccc(Br)cc21
> 100 µM (inactive)

Then this molecule: CC1OC(n2cc(Cl)c(=O)[nH]c2=O)C=C(OC(=O)c2ccccc2)C1=O (stereo not drawn)
> 100 µM (inactive)

Then this molecule: c1ccc2c(c1)c1ccccc1c1n[se]nc21
89.7 µM (inactive)

* * *

system: CCRF-CEM; test: NCI tumour cell line growth inhibition, 48 h
Activity calls are given as the source filed them. Cut-off read from the data, not from the text of the source: active = GI50 up to about 1.1 µM and inactive = higher. Where a SMILES comes first, the peptide text is derived from it. [ ]: non-standard residue; d: D form. The star is where a group is joined. ξ: configuration not given here. ξD = NC(CC(=O)O)C(=O)O; Ac3c = NC1(C(=O)O)CC1; Boc = CC(C)(C)OC(=O)*; OBn = c1ccc(CO*)cc1
The categories you may choose from are active, inactive

compound=CC1(C)CC(=O)C/C(=N/c2ccc([N+](=O)[O-])cc2)C1 label_value=inactive
compound=COC(=O)n1c(C[P+](c2ccccc2)(c2ccccc2)c2ccccc2)cc2ccccc21 label_value=active
compound="NC(=O)C1(c2ccccc2)Nc2ccccc2S1 (centres undefined)" label_value=inactive
compound="C[N+](C)(C)c1nc(N)nc2c1ncn2C1OC(CO)C(O)C1O (centres undefined)" label_value=inactive
compound="COc1cc(C2c3cc4c(cc3[C@@H](Nc3cccc(C(C)=O)c3)C3COC(=O)[C@H]23)OCO4)cc(OC)c1O (some centres undefined)" label_value=active

Query: recorded result category for O=c1[nH][nH]c(=O)n1Cc1ccccc1 in this test
inactive

Then this compound: COC(=O)C1(NC(=O)C(CC(=O)OCc2ccccc2)NC(=O)OC(C)(C)C)CC1 (centres undefined) (Boc-[ξD](OBn)-[Ac3c]-OMe)
inactive

Then this compound: Cc1ccccc1NC(=S)N/N=C(/c1ccccc1)c1ccccn1
active

Taken from ChEMBL document CHEMBL1201862.
